These entries and their values trace back to patent US20250263470A1.

Biological target: HA of influenza B virus ca B/Ann Arbor/2/94 (yamagata) (influenza B virus B/Ann Arbor/2/94)
Experiment: cell-based or functional assay
property measured: Neutralization (Ave IC50 ug/ml) (µg/mL)
Answers are plain numbers, in µg/mL.

Record request: Neutralization (Ave IC50 ug/ml) value, item FBC-39 (antibody, V domains shown) VH: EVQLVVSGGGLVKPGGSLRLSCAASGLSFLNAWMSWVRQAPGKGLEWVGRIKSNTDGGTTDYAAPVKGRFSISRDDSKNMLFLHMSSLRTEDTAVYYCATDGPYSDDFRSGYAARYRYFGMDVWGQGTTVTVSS VL: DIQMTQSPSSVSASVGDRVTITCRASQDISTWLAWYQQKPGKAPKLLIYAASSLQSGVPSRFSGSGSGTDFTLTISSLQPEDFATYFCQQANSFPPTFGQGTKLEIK
0.027
